subject_of_test: melanocortin 5 receptor (MC5R) (UniProt P33032)
Sequence (P33032 whole entry): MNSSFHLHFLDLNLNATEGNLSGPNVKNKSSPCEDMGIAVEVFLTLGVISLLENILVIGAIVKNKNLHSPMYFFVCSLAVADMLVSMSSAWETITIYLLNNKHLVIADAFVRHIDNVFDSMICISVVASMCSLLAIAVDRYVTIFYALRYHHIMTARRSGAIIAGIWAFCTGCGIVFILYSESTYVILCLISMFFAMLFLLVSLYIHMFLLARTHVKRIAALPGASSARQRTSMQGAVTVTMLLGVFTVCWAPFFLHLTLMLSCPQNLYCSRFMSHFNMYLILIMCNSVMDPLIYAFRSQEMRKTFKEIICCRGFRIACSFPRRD
assay_comment: 125I-NDP-MSH competition, HEK293 membranes
[ ]: non-standard residue; d: D form. dCha = N[C@H](CC1CCCCC1)C(=O)O
readout_label: pKi
In simple prose, pKi is minus the logarithm base ten of a concentration in moles per litre.

Tell us which pKi value is on record for Ac-[dV][dP][dK]G[dW][dR][dCha][dH][dS][dI][dI][dS][dS]-NH2 (SMILES CC[C@@H](C)[C@@H](NC(=O)[C@@H](CO)NC(=O)[C@@H](Cc1c[nH]cn1)NC(=O)[C@@H](CC1CCCCC1)NC(=O)[C@@H](CCCNC(=N)N)NC(=O)[C@@H](Cc1c[nH]c2ccccc12)NC(=O)CNC(=O)[C@@H](CCCCN)NC(=O)[C@H]1CCCN1C(=O)[C@H](NC(C)=O)C(C)C)C(=O)N[C@@H](C(=O)N[C@H](CO)C(=O)N[C@H](CO)C(N)=O)[C@H](C)CC) [RI α-MSH analog 891] 5.60
